test system: H2122; assay: Cell viability dose-response, H2122; assay type: cell-based, human; settings: Homo sapiens, NCI-H2122, Tables 3 and 4; read-out: IC50 (uM) vs indicated non-small cell lung cancer cell line H2122
IC50 overview
measureName: IC50 (µM)

- O=C(Nc1nccs1)c1ccc(C(=O)c2ccccc2)cc1: 32.9
- O=C(Nc1ccc(F)cc1)c1sc2ccccc2c1Cl: 1.7
- O=C(Nc1nc2c(s1)CCCC2)c1ccccc1Oc1ccccc1: 1
- NC(=O)c1c(NC(=O)c2sc3ccccc3c2Cl)sc2c1CCCCC2: 0.36
- COc1ccc(C(=O)Nc2nc3ccccc3s2)cc1: 2.62
- O=C(Nc1ncc(-c2ccccc2)s1)c1ccc(C(=O)c2ccccc2)cc1: 5.76
- O=C(Nc1ccccc1F)c1sc2ccccc2c1Cl: 1.05
- O=C(Nc1ccc(NC(=O)c2sc3ccccc3c2Cl)cc1)c1ccco1: 0.897
- COc1ccc2nc(NC(=O)c3ccc(N=[N+]=[N-])cc3)sc2c1: 0.12
- COC(=O)c1ccc(C(=O)Nc2nc3cc(N)ccc3s2)cc1: 297
- O=C(Nc1ncc(Cc2ccccc2)s1)c1ccc(C(=O)c2ccccc2)cc1: 3.55
- O=C(Nc1ccc([N+](=O)[O-])cc1F)c1sc2ccccc2c1Cl: 122
- COc1ccc2nc(NC(=O)c3ccc(C(=O)c4cccnc4)cc3)sc2c1: 0.017
- COc1ccc2nc(NC(=O)c3c(F)ccc(OC)c3F)sc2c1: 6.53
- COc1cc2sc(NC(=O)c3ccc(C(=O)c4ccccc4)cc3)nc2cc1Br: 0.61
- COc1ccc2nc(NC(=O)c3ccc(C(O)c4ccccn4)cc3)sc2c1 (centres unmarked): 0.029
- COc1ccc2nc(NC(=O)c3ccc(C(=O)NCc4ccccc4)cc3)sc2c1: 0.013

###

tested on: HBEC30KT; assay: Cell viability (ATP, Cell Titer Glo, 4 days), HBEC30KT; format: cell-based, human; settings: Tables 3 and 4; read-out: HBEC30KT IC50
measureName: IC50

- O=C(Nc1cccc(NC(=O)c2sc3ccccc3c2Cl)c1)c1cccc(Cl)c1 [SW023441]: 30 µM

###

tested on: H2122; assay: Cell viability dose-response, H2122; assay type: cell-based, human; settings: Homo sapiens, NCI-H2122, Tables 3 and 4; read-out: IC50 (uM) vs indicated non-small cell lung cancer cell line H2122
For each record, check the reported IC50: if it is below 0.3 µM write True, else write False.

- NC(=O)c1ccccc1NC(=O)c1sc2ccccc2c1Cl [SW119800]: False
- COc1ccc2nc(NC(=O)c3ccc(OCc4ccccc4)cc3)sc2c1 [SW202773-1]: True
- COc1ccc(C(=O)Nc2nc3cc(N)ccc3s2)cc1 [SW202739]: False
- COC(=O)c1ccc(C(=O)Nc2nc3ccccc3s2)cc1 [SW209414-1]: False
- COc1ccc2nc(NC(=O)c3ccc(C(=O)N4CCCCC4)cc3)sc2c1 [SW203730]: False
- O=C(Nc1nc2ccc(O)cc2s1)c1c(F)ccc(O)c1F [SW202860-1]: False
- COc1ccc2nc(NC(=O)c3ccc(C(=O)c4ccccc4)cc3)sc2n1 [SW208233-1]: False
- COc1ccc2nc(NC(=O)c3ccc(N)cc3)sc2c1 [SW001286]: True
- C#CCOc1ccc2nc(NC(=O)c3ccc(C4(C(F)(F)F)N=N4)cc3)sc2c1 [SW208700-1]: False
- COc1ccc(C(=O)Nc2nc3ccc(OC)cc3s2)cc1 [SW202745]: False
- O=C(Nc1nc2ccccc2s1)c1ccc([N+](=O)[O-])cc1 [SW003992]: True
- COc1ccc2nc(NC(=O)Cc3ccccc3)sc2c1 [SW202749]: False
- O=C(Nc1nc2ccc(OCCCBr)cc2s1)c1ccc(C(=O)c2ccccc2)cc1 [SW 208235]: False
- Nc1ccc(C(=O)Nc2nc3ccccc3[nH]2)cc1 [SW211566]: False
- O=C(Nc1nc2ccccc2o1)c1ccc(C(=O)c2ccccc2)cc1 [SW208665-1]: False
- Nc1cccc(C(=O)Nc2nc3ccccc3s2)c1 [SW209323-1]: True
- O=C(Nc1nnc(C2CCCCC2)s1)c1sc2ccccc2c1Cl [SW173997]: True
- COc1ccc2nc(NC(=O)c3ccc([N+](=O)[O-])cc3)sc2c1 [SW001282-2]: True
- COc1ccccc1NC(=O)c1sc2ccccc2c1Cl [SW004989]: False
- Nc1ccc2nc(NC(=O)c3ccc(C(=O)O)cc3)sc2c1 [SW209413-1]: False
- O=S(=O)(Nc1nc2ccccc2s1)c1ccc(C(F)(F)F)cc1 [SW202754]: False
- O=C(Nc1cccc(NC(=O)c2sc3ccccc3c2Cl)c1)c1cccc(Cl)c1 [SW023441]: False
- COc1ccc2nc(NC(=O)c3ccc(Br)cc3)sc2c1 [SW000931]: False
- COc1ccc(C(=O)c2ccc(NC(=O)c3sc4ccccc4c3Cl)cc2)cc1 [SW202855-1]: False
- O=C(Nc1nc2ccc(O)cc2s1)c1ccc(C(=O)c2ccccc2)cc1 [SW202864-1]: False
- O=C(Nc1nc2c(s1)CCCC2)c1ccc(Cc2ccccc2)cc1 [SW011940]: True
- O=C(Nc1nc2ccccc2s1)c1ccc(-c2ccccc2)cc1 [SW001811]: False
- COc1ccc2nc(NC(=O)c3cccnc3)sc2c1 [SW202774-1]: False
- COc1ccc2nc(NS(=O)(=O)c3ccc(C(F)(F)F)cc3)sc2c1 [SW202746]: False
- O=C(Nc1nc2ccccc2s1)c1cccnc1 [SW006981]: True
- O=C(Nc1nc(-c2ccccc2)cs1)c1ccc(C(=O)c2ccccc2)cc1 [SW209018]: False
- C#CCNC(=O)c1ccc(C(=O)Nc2nc3ccccc3s2)cc1 [SW209082-1]: True
- COc1ccc2nc(NC(=O)c3ccc([C@@H](N)c4ccccc4)cc3)sc2c1 [SW208109]: True
- Cc1cccc(C(=O)Nc2nc3ccccc3s2)c1 [SW202755]: False
- CCOC(=O)c1c(NC(=O)c2ccccc2)sc2c1CCCC2 [SW202858-1]: False
- Nc1ccc(C(=O)Nc2nc3ccccc3s2)cc1 [SW209563-1]: True
- COC(=O)c1ccc(C(=O)Nc2nc3ccc(N)cc3s2)cc1 [SW001296]: False
- O=C(Nc1ccccc1N1CCCC1)c1sc2ccccc2c1Cl [SW174698]: False
- COc1ccc2nc(NC(=O)c3ccc([N+](=O)[O-])o3)sc2c1 [SW202753]: False
- COc1ccc2nc(NC(=O)c3ccc(C(O)c4ccncc4)cc3)sc2c1 (stereo not drawn) [SW203735]: True
- COc1ccc2sc(NC(=O)c3ccc([N+](=O)[O-])cc3)nc2c1 [SW004969]: True

###

system: H1155; assay: Cell viability dose-response, H1155; type: cell-based; settings: Homo sapiens, NCI-H1155; Tables 3 and 4; read-out: IC50 (uM) vs indicated non-small cell lung cancer cell line H1155
measureName: IC50 (µM)

• O=C(Nc1cccc(NC(=O)c2sc3ccccc3c2Cl)c1)c1cccc(Cl)c1 [SW023441] = 29
• Cc1cc(C)nc(SCC(=O)Nc2nc3ccccc3s2)n1 [SW053831] = 43
• O=C(Nc1nc2ccccc2s1)c1ccc([N+](=O)[O-])cc1 [SW003992] = 2870
• CCOc1cc(OCC)cc(C(=O)Nc2nc3ccc(OC)cc3s2)c1 [SW202776-1] = 46.2
• COc1ccc(C(=O)c2ccc(NC(=O)c3sc4ccccc4c3Cl)cc2)cc1 [SW202855-1] = 46.1
• O=C(Nc1nc2ccc(O)cc2s1)c1c(F)ccc(O)c1F [SW202860-1] = 49.2
• NC(=O)c1c(NC(=O)COc2ccccc2)sc2c1CCCC2 [SW119324] = 44.5
• O=C(Nc1nc2ccc(F)cc2s1)c1sc2ccccc2c1Cl [SW147703] = 13.3
• O=C(Nc1nc2c(s1)CCCC2)c1ccccc1Oc1ccccc1 [SW045964] = 389
• O=C(Nc1nc2c(s1)CCCC2)c1ccc(Cc2ccccc2)cc1 [SW011940] = 21.7
• COc1ccc2nc(NC(=O)c3c(F)ccc(OC)c3F)sc2c1 [SW202775-1] = 35.5
• O=C(c1ccccc1)c1ccc(NC(=O)c2sc3ccccc3c2Cl)cc1 [SW025780] = 33
• NC(=O)c1c(NC(=O)c2sc3ccccc3c2Cl)sc2c1CCCCC2 [SW155113] = 14.5
• O=C(Nc1nc2ccccc2s1)c1cccnc1 [SW006981] = 95
• COc1ccc2nc(NC(=O)c3ccc(C(=O)c4ccccc4)cc3)sc2c1 [SW202857-1] = 22.3
• O=C(Nc1nc2ccccc2s1)c1ccc(-c2ccccc2)cc1 [SW001811] = 125
• O=C(Nc1ccc(F)c(Cl)c1)c1sc2ccccc2c1Cl [SW118753] = 105
• COc1ccc2nc(NC(=O)c3ccc(OCc4ccccc4)cc3)sc2c1 [SW202773-1] = 23.6
• O=C(Nc1nnc(C2CCCCC2)s1)c1sc2ccccc2c1Cl [SW173997] = 23.8
• COc1ccc2nc(NC(=O)c3cccnc3)sc2c1 [SW202774-1] = 35.2
• COc1ccc2nc(NC(=O)c3ccc(N)cc3)sc2c1 [SW001286] = 25
• O=C(c1ccc(O)cc1)c1ccc(NC(=O)c2sc3ccccc3c2Cl)cc1 [SW202856-1] = 20.4

All values here come from patent US9789096B2.
